assay_protocol: Multi-component pharmacokinetics in rat plasma after oral administration of RB, RPA or RB-RPA extracts (UPLC-HRMS, non-compartmental analysis)
Type: in vivo, Sprague-Dawley rats
test_conditions: rat plasma, oral administration of mixed extracts RB-RPA, mean ± SD, n = 7
Counter-ions that a name gives are not always drawn.

compound: C[C@@]12C[C@@]3(O)O[C@@H](O1)[C@]1(CO)[C@H]3C[C@@]12O[C@@H]1O[C@H](CO)[C@@H](O)[C@H](O)[C@H]1O
tmax / min: 34.8
--
compound: C[C@]12C[C@@H](O)[C@@H]3C[C@@]1(O[C@@H]1O[C@H](CO)[C@@H](O)[C@H](O)[C@H]1O)[C@@]3(COC(=O)c1ccccc1)C(=O)O2
tmax / min: 42.6
--
compound: O=S(=O)(O)Oc1cccc(O)c1O [Pyrogallol sulfate]
tmax / min: 105
--
compound: CC1C2OC3(C)CC(=O)C1CC3(O)O2 (stereo not shown) [Paeonimetabolin I]
tmax / min: 49.8
